Reference source for all entries: patent US20250320281A1

Molecular target: HIV-1 Env of isolate MGRM-A-010 (pseudovirus) (HIV-1)
Assay: cell-based or functional assay
Readout type: IC50 (µg/mL), pseudovirus neutralization
Lab book: enter the figure in µg/mL, no units written.

PGT-127 (5145_B14) (antibody, V domains shown) VH: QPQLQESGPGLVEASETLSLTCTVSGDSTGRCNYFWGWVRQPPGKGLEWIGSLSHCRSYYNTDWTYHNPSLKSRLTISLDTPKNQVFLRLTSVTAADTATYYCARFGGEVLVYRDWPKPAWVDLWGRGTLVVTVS VL: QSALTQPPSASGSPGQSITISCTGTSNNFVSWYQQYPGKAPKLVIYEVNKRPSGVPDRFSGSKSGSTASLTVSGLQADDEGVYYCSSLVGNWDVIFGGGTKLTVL
0.017

Q) State, in one line, measured IC50 (µg/mL), pseudovirus neutralization of PGT-125 (5123_A06) (antibody, V domains shown) VH: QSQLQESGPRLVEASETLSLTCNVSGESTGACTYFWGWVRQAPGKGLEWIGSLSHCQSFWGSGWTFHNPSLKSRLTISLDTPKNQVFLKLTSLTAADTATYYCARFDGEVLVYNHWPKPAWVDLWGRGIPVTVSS VL: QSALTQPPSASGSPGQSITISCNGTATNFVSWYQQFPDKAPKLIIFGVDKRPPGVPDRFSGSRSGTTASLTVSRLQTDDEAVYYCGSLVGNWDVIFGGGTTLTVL
A) 0.004

Q) State, in one line, measured IC50 (µg/mL), pseudovirus neutralization of PGT-126 (5141_B17) (antibody, V domains shown) VH: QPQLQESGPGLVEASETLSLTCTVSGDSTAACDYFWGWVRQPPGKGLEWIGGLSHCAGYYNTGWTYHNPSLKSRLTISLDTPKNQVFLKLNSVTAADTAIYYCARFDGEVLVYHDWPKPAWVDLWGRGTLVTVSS VL: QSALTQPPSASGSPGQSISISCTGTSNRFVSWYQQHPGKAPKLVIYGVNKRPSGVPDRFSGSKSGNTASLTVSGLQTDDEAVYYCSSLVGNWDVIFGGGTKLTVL
A) 0.002

Q) State, in one line, measured IC50 (µg/mL), pseudovirus neutralization of PGT-123 (4858_P08) (antibody, V domains shown) VH: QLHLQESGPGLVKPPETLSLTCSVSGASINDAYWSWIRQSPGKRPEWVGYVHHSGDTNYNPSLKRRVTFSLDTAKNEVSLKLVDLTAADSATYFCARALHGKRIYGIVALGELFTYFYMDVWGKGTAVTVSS VL: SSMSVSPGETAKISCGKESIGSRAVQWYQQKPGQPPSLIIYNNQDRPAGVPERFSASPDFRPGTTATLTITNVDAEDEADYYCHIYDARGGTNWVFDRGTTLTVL
A) 0.705
